B1: Twister Ribozyme (parent)
chain: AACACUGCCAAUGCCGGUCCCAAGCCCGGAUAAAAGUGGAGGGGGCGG

Variants of: B1
experimental details: self-cleavage, relative activity (ratio to wild type); higher = more cleavage; co-transcriptional
Kind request: treat 0.2 as inclusive, so self-cleavage at 0.2 or higher is label 1, anything lower is label 0.

Please review the following examples before continuing.
variant_name="U31G A32C" class_name="label 1"
variant_name="G36U A40C" class_name="label 0"

## Input Form field: self-cleavage at least 0.2? Entry: G41U G44U
## Output label 0

## Input Form field: self-cleavage at least 0.2? Entry: C14A A40G
## Output label 0

## Input Form field: self-cleavage at least 0.2? Entry: G24A C27G
## Output label 0

## Input Form field: self-cleavage at least 0.2? Entry: C8G C46A
## Output label 1

## Input Form field: self-cleavage at least 0.2? Entry: G13C G17A
## Output label 0

## Input Form field: self-cleavage at least 0.2? Entry: G17C G45U
## Output label 0

## Input Form field: self-cleavage at least 0.2? Entry: U18G A22U
## Output label 0

## Input Form field: self-cleavage at least 0.2? Entry: C21A A32G
## Output label 0
